The following molecules are listed with their measured Catalytic activity (%): removal of N-terminal Met values.
# Tested on: Met-tagged onconase
# TEST DESCRIPTION: In vivo catalytic activity of MetAPs co-expressed with Met-tagged onconase in E. coli BL21(DE3); N-terminus by Edman degradation
# Assay type: cell-based
# CONDITIONS: substrate MQD-Onc, in vivo in E. coli
ASSAY ENDPOINT: Catalytic activity (%): removal of N-terminal Met

INSERT INTO assay_data (molecule, unit_string, measured_result) VALUES
  ('MetAP-*TT (protein) AISIKTPEDIEKMRVAGRLAAEVLEMIEPYVKPGVSTGELDRICNDYIVNEQHAVSACLGYHGYPKSVCISINEVVCHGIPDDAKLLKDGDIVNIDVTVIKDGFHGDTSKMFIVGKPTIMGERLCRITQESLYLALRMVKPGINLREIGAAIQKFVEAEGFSVVREYCGHGIGRGFHEEPQVLHYDSRETNVVLKPGMTFTIEPTVNAGKKEIRTMKDGWTVKTKDRSLSATYEHTIVVTDNGCEILTLRKDDTIPAIISHDE', '%', 93),
  ('MetAP-GTG (protein) AISIKTPEDIEKMRVAGRLAAEVLEMIEPYVKPGVSTGELDRICNDYIVNEQHAVSACLGYHGYPKSVCISINEVVCHGIPDDAKLLKDGDIVNIDVTVIKDGFHGDTSKMFIVGKPTIMGERLCRITQESLYLALRMVKPGINLREIGAAIQKFVEAEGFSVVREGCGHGIGRGFHEEPQVLHYDSRETNVVLKPGMTFTIEPTVNAGKKEIRTMKDGWTVKTKDRSLSAGYEHTIVVTDNGCEILTLRKDDTIPAIISHDE', '%', 97),
  ('MetAP-Q233T: E. coli MetAP with Gln233 replaced by Thr (protein, UniProt P0AE18 2-264, looked up, variant Q233T) Methionine aminopeptidase: AISIKTPEDIEKMRVAGRLAAEVLEMIEPYVKPGVSTGELDRICNDYIVNEQHAVSACLGYHGYPKSVCISINEVVCHGIPDDAKLLKDGDIVNIDVTVIKDGFHGDTSKMFIVGKPTIMGERLCRITQESLYLALRMVKPGINLREIGAAIQKFVEAEGFSVVREYCGHGIGRGFHEEPQVLHYDSRETNVVLKPGMTFTIEPMVNAGKKEIRTMKDGWTVKTKDRSLSATYEHTIVVTDNGCEILTLRKDDTIPAIISHDE', '%', 88),
  ('MetAP-Q233G: E. coli MetAP with Gln233 replaced by Gly (protein, UniProt P0AE18 2-264, looked up, variant Q233G) Methionine aminopeptidase: AISIKTPEDIEKMRVAGRLAAEVLEMIEPYVKPGVSTGELDRICNDYIVNEQHAVSACLGYHGYPKSVCISINEVVCHGIPDDAKLLKDGDIVNIDVTVIKDGFHGDTSKMFIVGKPTIMGERLCRITQESLYLALRMVKPGINLREIGAAIQKFVEAEGFSVVREYCGHGIGRGFHEEPQVLHYDSRETNVVLKPGMTFTIEPMVNAGKKEIRTMKDGWTVKTKDRSLSAGYEHTIVVTDNGCEILTLRKDDTIPAIISHDE', '%', 74);

Provenance of the data: patent US7109015B2
